organism: Rattus norvegicus; experiment: DrugMatrix - Regimen: Daily Repeat; assay type: toxicity, organism-based, Sprague-Dawley; design: regimen Daily Repeat, gender Male, age 6-8 weeks; conditions: in vivo, po, 0 mg/kg, 120 h, tissue Plasma, route oral GAVAGE, dose level Control, time 5 day, […]
Lab note: anything with LACTATE DEHYDROGENASE at or over 100 u/L counts as YES; the rest go in NO.

compound: CCOC(=O)C1=C(C)NC(C)=C(C(=O)OCC)C1c1ccccc1/C=C/C(=O)OC(C)(C)C
class_assignment: YES

compound: COC(=O)Nc1nc2ccc(C(=O)c3ccccc3)cc2[nH]1
class_assignment: YES

compound: c1ccc2c(c1)Nc1ccccc1S2
class_assignment: NO

compound: CC(C)(c1ccc(O)cc1)c1ccc(O)cc1
class_assignment: NO

compound: Oc1ncnc2[nH]ncc12
class_assignment: YES

compound: CO[C@H]1O[C@@H]2O[C@@]3(C)CC[C@H]4[C@H](C)CC[C@@H]([C@H]1C)[C@@]24OO3
class_assignment: YES

In plain terms: is recorded LACTATE DEHYDROGENASE at least 100 u/L for O=C(O)COC(=O)Cc1ccccc1Nc1c(Cl)cccc1Cl ?
YES

Would you say Cc1cccc(C)c1NC(=O)C(C)N (centres undefined) [TOCAINIDE] shows LACTATE DEHYDROGENASE at minimum 100 u/L?
YES

Does the reported LACTATE DEHYDROGENASE for CCC(C)(C)C(=O)O[C@H]1C[C@@H](C)C=C2C=C[C@H](C)[C@H](CC[C@@H]3C[C@@H](O)CC(=O)O3)[C@H]21 fall at or above the 100 u/L mark?
NO

====

For each of the molecules below, state its SODIUM.
species: Rattus norvegicus; assay: DrugMatrix - Regimen: Daily Repeat; assay type: toxicity, organism-based, Sprague-Dawley; design: regimen Daily Repeat, gender Male, age 6-8 weeks; details: in vivo, po, 0 mg/kg, 72 h, tissue Plasma, route oral GAVAGE, dose level Control, time 3 day, […]
One number for each entry, in MEQ/L.

Provide the reported SODIUM of each entry below, same order.
1. CCOC(=O)C1=C(C)NC(C)=C(C(=O)OCC)C1c1ccccc1/C=C/C(=O)OC(C)(C)C
2. c1ccc2c(c1)Nc1ccccc1S2
3. CC#C[C@]1(O)CC[C@H]2[C@@H]3CCC4=CC(=O)CCC4=C3[C@@H](c3ccc(N(C)C)cc3)C[C@@]21C

137.67
144.12
142.92

====

organism: Rattus norvegicus; assay: DrugMatrix - Regimen: Daily Repeat; type: toxicity, organism-based, Sprague-Dawley; set-up: regimen Daily Repeat, gender Male, age 6-8 weeks; settings: in vivo, po, 0 mg/kg, 120 h, tissue Blood, route oral GAVAGE, dose level Control, time 5 day, vehicle .5 % CMC
Label condition met when EOSINOPHIL is at or above 0.2%; otherwise label condition not met.

Examples from the recorded data:
compound: CC(C)Cc1ccc([C@H](C)C(=O)O)cc1
class_assignment: condition met
--
compound: CC(C)(C#N)c1cc(Cn2cncn2)cc(C(C)(C)C#N)c1
class_assignment: condition not met

Now consider a different compound.
Hi, just wondering whether CCN1CCCC1CNC(=O)c1cc(S(N)(=O)=O)ccc1OC (stereo not given) [SULPIRIDE] shows EOSINOPHIL of 0.2% or higher.
condition not met

Attribution: ChEMBL document CHEMBL3885881
